target: furin, P09958; assay: furin cleavage Z-score vs untreated control; higher = more cleavage, active = 3.5 or more, inactive = 1 or less, 8 variable residues between constant flanks; details: 15 min;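 also: purified furin at 1:10 enzyme:substrate in 50 mM HEPES pH 7.5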
Sequence (P09958 whole entry): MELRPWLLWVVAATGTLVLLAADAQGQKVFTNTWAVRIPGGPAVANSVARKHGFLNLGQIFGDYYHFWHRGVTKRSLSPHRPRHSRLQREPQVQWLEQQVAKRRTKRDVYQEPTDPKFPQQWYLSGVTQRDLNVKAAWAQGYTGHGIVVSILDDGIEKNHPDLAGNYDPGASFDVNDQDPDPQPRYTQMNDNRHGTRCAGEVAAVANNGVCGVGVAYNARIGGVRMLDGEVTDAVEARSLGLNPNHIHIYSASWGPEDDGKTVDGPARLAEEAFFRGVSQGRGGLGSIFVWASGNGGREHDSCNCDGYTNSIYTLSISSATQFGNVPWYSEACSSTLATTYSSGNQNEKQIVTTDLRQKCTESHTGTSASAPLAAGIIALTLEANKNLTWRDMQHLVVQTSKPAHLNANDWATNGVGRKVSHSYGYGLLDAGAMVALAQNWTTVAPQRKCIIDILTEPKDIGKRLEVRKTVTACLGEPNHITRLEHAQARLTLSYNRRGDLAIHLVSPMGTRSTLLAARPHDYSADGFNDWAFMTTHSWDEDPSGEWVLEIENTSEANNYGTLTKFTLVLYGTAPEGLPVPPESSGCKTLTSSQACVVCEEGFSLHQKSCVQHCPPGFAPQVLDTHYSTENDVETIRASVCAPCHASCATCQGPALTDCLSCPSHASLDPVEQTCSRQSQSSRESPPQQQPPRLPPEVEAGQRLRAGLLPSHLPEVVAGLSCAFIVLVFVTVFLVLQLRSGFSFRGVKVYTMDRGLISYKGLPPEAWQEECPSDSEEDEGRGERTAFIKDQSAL
This is one part of the list. The true hit rate is not given.
measure: furin cleavage Z-score
Lab note: jot down the number only; don't add units.

Param item = CAVVCCIMSYAGNASASA [HC105] ; retrieve measured furin cleavage Z-score.
0.708

Param item = CADRLQVLDSAGNASASA [HC1398] ; retrieve measured furin cleavage Z-score.
0.665

Param item = CAYRARQRRAAGNASASA [FS-1295] ; retrieve measured furin cleavage Z-score.
5.59

Param item = CARPQRSACHAGNASASA [FS-1832] ; retrieve measured furin cleavage Z-score.
1.03

Param item = CAHNSRKKREAGNASASA [FS-1340] ; retrieve measured furin cleavage Z-score.
13.6

Param item = CASPDAELIEAGNASASA [HC1271] ; retrieve measured furin cleavage Z-score.
-1.02

Param item = CARRARSLALAGNASASA [FS-2770] ; retrieve measured furin cleavage Z-score.
6.9

Hello, the source for this data is the supplement of paper PMC3545927, in case you need it.
